target: nuclear receptor RORγ [核受体RORγ] (Homo sapiens); construct: 重组质粒:Gal4-RORγLBD:25ng; assay: Dual-luciferase reporter assay, inhibition of nuclear receptor RORγ at cell level in 293T cells (Gal4-RORγLBD); details: inhibitory activity against RORγ at cell level; 293T cells, 24 h incubation with compound
Sequence (P51449 269-508 limits assumed): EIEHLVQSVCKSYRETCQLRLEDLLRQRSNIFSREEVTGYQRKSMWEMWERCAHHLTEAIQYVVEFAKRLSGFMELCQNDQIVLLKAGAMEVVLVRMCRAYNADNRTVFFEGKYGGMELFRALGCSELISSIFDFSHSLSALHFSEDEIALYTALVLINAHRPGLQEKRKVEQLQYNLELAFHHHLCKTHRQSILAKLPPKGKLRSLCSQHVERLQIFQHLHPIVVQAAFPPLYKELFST
MEASURED_PROPERTY: IC50 (µM)
Numbers only, in µM.

# annotated cases, reported IC50 shown
{"columns": ["COMPOUND", "TARGET_SYSTEM", "IC50 (µM)"],
 "data": [
  ["O=S(=O)(Nc1ccc2c(c1)N(S(=O)(=O)c1cccs1)CCC2)c1ccc2c(c1)OCCO2 [实施例48]", "nuclear receptor RORγ [核受体RORγ] (Homo sapiens)", 0.58],
  ["COC(=O)c1ccccc1S(=O)(=O)N1CCCc2ccc(NS(=O)(=O)c3cc(OC)ccc3OC)cc21 [实施例56]", "nuclear receptor RORγ [核受体RORγ] (Homo sapiens)", 0.16],
  ["COC(=O)c1ccccc1S(=O)(=O)N1CCCc2ccc(NS(=O)(=O)c3ccc(OC)cc3)cc21 [实施例55]", "nuclear receptor RORγ [核受体RORγ] (Homo sapiens)", 0.41],
  ["COC(=O)c1ccccc1S(=O)(=O)N1CCCc2ccc(NS(=O)(=O)c3ccc4c(c3)OCCO4)cc21 [实施例52]", "nuclear receptor RORγ [核受体RORγ] (Homo sapiens)", 0.7],
  ["O=S(=O)(Nc1ccc2c(c1)N(S(=O)(=O)c1ccc(F)cc1)CCC2)c1ccc2c(c1)OCCO2 [实施例8]", "nuclear receptor RORγ [核受体RORγ] (Homo sapiens)", 0.79]
]}

Would you be so kind as to report IC50 for each listed record?
1. COC(=O)c1ccc(S(=O)(=O)Nc2ccc3c(c2)N(S(=O)(=O)c2ccc(F)cc2)CCC3)cc1 [实施例19]
2. COC(=O)c1ccccc1S(=O)(=O)N1CCCc2ccc(NS(=O)(=O)c3cccc(Cl)c3F)cc21 [实施例53]

Result:
1. 0.88
2. 0.79

Query: Please report IC50 for the following compound: O=S(=O)(Nc1ccc2c(c1)N(S(=O)(=O)Cc1ccc(F)cc1)CCC2)c1ccc(F)cc1F [实施例28]
Result: 0.74
